All figures here come from patent US10010560.

Biological target: HSP70 (ATP-bound) (human)
Sequence (chain, as listed by the source): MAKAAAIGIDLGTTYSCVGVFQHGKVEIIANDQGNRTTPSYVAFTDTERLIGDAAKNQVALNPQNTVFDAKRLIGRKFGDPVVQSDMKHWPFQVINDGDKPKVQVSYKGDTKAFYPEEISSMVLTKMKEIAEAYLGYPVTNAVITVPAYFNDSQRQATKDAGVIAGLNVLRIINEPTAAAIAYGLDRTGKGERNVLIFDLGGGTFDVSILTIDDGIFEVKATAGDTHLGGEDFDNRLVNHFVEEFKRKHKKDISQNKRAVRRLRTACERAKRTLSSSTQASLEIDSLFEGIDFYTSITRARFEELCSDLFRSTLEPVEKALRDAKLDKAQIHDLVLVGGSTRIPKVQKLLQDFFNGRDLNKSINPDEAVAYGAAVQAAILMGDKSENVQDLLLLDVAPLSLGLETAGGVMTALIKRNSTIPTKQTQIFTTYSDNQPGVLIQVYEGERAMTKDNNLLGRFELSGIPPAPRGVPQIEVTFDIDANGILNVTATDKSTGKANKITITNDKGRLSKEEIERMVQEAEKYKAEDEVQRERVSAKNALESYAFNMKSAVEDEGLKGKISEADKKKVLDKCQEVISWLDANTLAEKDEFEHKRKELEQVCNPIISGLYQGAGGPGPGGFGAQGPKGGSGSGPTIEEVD
Experiment: ITC, ATP
measured_parameter: pKd
Friendly reminder that pKd comes from taking -log10 of the concentration in mol/L.

Tell me the measured pKd of NRLLLTG [NRLLLTG peptide] , please.
2.90
